Parameter: DC50. Scope: all listed entries.
Target: SMARCA2 (Homo sapiens)
Sequence (P51531 whole entry): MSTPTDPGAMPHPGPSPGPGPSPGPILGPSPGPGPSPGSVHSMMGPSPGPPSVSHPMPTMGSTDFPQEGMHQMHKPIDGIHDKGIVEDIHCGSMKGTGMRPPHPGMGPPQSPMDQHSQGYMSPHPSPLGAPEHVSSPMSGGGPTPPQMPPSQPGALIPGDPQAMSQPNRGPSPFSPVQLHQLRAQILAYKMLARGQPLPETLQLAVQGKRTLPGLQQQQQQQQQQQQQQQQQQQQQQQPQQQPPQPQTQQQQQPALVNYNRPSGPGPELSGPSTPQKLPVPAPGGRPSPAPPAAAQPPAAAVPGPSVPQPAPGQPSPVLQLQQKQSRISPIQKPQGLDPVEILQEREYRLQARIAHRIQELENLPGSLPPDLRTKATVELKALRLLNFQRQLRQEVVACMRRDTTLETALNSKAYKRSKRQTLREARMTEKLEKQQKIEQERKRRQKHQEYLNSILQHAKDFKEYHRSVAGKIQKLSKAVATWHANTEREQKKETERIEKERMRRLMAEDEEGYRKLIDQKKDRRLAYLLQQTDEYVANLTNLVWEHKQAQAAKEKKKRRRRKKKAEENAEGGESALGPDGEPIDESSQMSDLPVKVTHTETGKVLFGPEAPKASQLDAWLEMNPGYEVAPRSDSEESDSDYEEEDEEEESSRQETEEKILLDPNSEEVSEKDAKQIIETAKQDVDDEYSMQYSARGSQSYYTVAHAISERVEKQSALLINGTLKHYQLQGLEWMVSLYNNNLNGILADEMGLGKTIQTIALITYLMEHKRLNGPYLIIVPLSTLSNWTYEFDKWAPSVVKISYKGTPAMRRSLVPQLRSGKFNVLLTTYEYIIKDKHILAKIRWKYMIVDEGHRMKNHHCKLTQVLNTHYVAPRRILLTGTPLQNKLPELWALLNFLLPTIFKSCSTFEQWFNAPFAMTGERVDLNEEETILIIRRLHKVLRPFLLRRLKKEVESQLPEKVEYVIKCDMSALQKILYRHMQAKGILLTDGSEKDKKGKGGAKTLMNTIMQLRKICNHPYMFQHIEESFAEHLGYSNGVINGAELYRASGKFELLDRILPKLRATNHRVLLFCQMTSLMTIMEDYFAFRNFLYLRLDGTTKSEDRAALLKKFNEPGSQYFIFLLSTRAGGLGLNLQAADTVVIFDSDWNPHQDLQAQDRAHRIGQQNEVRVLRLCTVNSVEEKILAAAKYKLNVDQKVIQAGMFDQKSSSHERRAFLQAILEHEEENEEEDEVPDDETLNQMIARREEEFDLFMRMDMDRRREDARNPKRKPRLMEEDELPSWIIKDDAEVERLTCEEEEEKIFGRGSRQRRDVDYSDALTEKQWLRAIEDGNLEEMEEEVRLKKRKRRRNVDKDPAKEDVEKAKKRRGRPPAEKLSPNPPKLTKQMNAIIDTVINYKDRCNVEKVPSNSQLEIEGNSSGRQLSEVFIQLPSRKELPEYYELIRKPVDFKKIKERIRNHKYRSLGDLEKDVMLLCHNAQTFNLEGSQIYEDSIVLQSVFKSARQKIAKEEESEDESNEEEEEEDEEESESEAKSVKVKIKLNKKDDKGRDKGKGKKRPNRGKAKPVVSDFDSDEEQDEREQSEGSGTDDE
Test: HiBiT assay for protein degradation, Hela SMARCA2-HiBiT cells (A series)
Assay type: cell-based
Set-up: Hela cells were genetically modified via CRISPR/Cas9 to fuse HiBiT to the carboxy terminus of SMARCA2; host or cells: HeLa (CRISPR/Cas9 HiBiT knock-in)
Details: Hela SMARCA2-HiBiT cells, 24 hours treatment; read-out: SMARC A2 Hela HiBit DC50

| structureString | DC50 |
| --- | --- |
| COC(=O)C[C@H](NC(=O)[C@@H]1C[C@@H](O)CN1C(=O)[C@@H](n1cc([C@H]2CC[C@H](CN3CCC(c4ccc5c(c4)-n4c(nc(=O)c6c(Cl)cccc64)C54CCCCC4)CC3)CC2)nn1)C(C)(C)C)c1ccc(-c2scnc2C)cc1 | < 10 nM |
| Cc1ncsc1-c1ccc([C@H](C)NC(=O)[C@@H]2C[C@@H](O)CN2C(=O)[C@@H](n2cc([C@H]3CC[C@H](CN4CCC(c5ccc6c(c5)-n5c(nc(=O)c7c(Br)cccc75)C65CCCCC5)CC4)CC3)nn2)C(C)(C)C)cc1 | < 100 nM |
| Cc1ncsc1-c1ccc([C@H](CN2CCS(=O)(=O)CC2)NC(=O)[C@@H]2C[C@@H](O)CN2C(=O)[C@@H](n2cc([C@H]3CC[C@H](CN4CCC(c5ccc6c(c5)-n5c(nc(=O)c7c(Cl)cccc75)C65CCCCC5)CC4)CC3)nn2)C(C)(C)C)cc1 | < 100 nM |
| Cc1ncsc1-c1ccc([C@H](CN2CCC(O)CC2)NC(=O)[C@@H]2C[C@@H](O)CN2C(=O)[C@@H](n2cc([C@H]3CC[C@H](CN4CCC(c5ccc6c(c5)-n5c(nc(=O)c7c(Cl)cccc75)C65CCCCC5)CC4)CC3)nn2)C(C)(C)C)cc1 | < 100 nM |
| Cc1ncsc1-c1ccc([C@H](CO)NC(=O)[C@@H]2C[C@@H](O)CN2C(=O)[C@H](C2CCCCC2)n2cc([C@H]3CC[C@H](CN4CCC(c5ccc6c(c5)-n5c(nc(=O)c7c(Br)cccc75)C65CCCCC5)CC4)CC3)nn2)cc1 | < 10 nM |
| Cc1ncsc1-c1ccc([C@H](Cn2cc(CN3CCC(c4ccc5c(c4)-n4c(nc(=O)c6c(Br)cccc64)C54CCCCC4)CC3)nn2)NC(=O)[C@@H]2C[C@@H](O)CN2C(=O)[C@@H](n2cc(C3CC3)nn2)C(C)(C)C)cc1 | 10 to 100 nM |
| Cc1ncsc1-c1ccc([C@H](C)NC(=O)[C@@H]2C[C@@H](O)CN2C(=O)[C@H](C2CCCCC2)n2cc([C@H]3CC[C@H](CN4CCC(c5ccc6c(c5)-n5c(nc(=O)c7c(Cl)cccc75)C65CCCCC5)CC4)CC3)nn2)cc1 | < 10 nM |
| Cc1ncsc1-c1ccc([C@H](C)NC(=O)[C@@H]2C[C@@H](O)CN2C(=O)[C@@H](NC(=O)[C@H]2CC[C@H](CN3CCC(c4ccc5c(c4)C4(CCCCC4)c4nc(=O)c6c(Cl)cccc6n4-5)CC3)CC2)C(C)(C)C)cc1 | < 100 nM |

----------
Target: UniProt P51532
Assay: HiBiT assay for protein degradation, Hela SMARCA4-HiBiT cells (A series)
Type: cell-based
Design: fuse HiBiT to the carboxy terminus of SMARCA2 (Promega CS302365) or SMARCA4 (Promega CS3023225); host or cells: HeLa (CRISPR/Cas9 HiBiT knock-in)
Details: Hela SMARCA4-HiBiT cells, 24 hours treatment; read-out: SMARC A4 Hela HiBit DC50
Recorded measurements of DC50, one per entry

| compound | DC50 |
| --- | --- |
| Cc1ncsc1-c1ccc([C@@H](C)NC(=O)[C@@H]2C[C@@H](O)CN2C(=O)C(c2cc(N3CCC(CN4CCC(c5ccc6c(c5)C5(CCCCC5)c5nc(=O)c7c(Br)cccc7n5-6)CC4)CC3)no2)C(C)C)cc1 (stereo partly drawn) [Compound A59] | > 1 µM |
| Cc1ncsc1-c1ccc([C@H](CO)NC(=O)[C@@H]2C[C@@H](O)CN2C(=O)[C@H](C2CCCCC2)n2cc([C@H]3CC[C@H](CN4CCC(c5ccc6c(c5)-n5c(nc(=O)c7c(Cl)cccc75)C65CCCCC5)CC4)CC3)nn2)cc1 [Compound A126] | 0.01 to 0.1 µM |
| Cc1ncsc1-c1ccc([C@H](CCCCCN2CCC(c3ccc4c(c3)C3(CCCCC3)c3nc(=O)c5c(Br)cccc5n3-4)CC2)NC(=O)[C@@H]2C[C@@H](O)CN2C(=O)[C@@H](NC(=O)C2(N(C)C)CC2)C(C)(C)C)cc1 [Compound A17] | < 0.1 µM |

----------
List of Dmax values.
Molecular target: SMARCA4 (Homo sapiens, UniProt P51532)
Sequence (P51532 whole entry): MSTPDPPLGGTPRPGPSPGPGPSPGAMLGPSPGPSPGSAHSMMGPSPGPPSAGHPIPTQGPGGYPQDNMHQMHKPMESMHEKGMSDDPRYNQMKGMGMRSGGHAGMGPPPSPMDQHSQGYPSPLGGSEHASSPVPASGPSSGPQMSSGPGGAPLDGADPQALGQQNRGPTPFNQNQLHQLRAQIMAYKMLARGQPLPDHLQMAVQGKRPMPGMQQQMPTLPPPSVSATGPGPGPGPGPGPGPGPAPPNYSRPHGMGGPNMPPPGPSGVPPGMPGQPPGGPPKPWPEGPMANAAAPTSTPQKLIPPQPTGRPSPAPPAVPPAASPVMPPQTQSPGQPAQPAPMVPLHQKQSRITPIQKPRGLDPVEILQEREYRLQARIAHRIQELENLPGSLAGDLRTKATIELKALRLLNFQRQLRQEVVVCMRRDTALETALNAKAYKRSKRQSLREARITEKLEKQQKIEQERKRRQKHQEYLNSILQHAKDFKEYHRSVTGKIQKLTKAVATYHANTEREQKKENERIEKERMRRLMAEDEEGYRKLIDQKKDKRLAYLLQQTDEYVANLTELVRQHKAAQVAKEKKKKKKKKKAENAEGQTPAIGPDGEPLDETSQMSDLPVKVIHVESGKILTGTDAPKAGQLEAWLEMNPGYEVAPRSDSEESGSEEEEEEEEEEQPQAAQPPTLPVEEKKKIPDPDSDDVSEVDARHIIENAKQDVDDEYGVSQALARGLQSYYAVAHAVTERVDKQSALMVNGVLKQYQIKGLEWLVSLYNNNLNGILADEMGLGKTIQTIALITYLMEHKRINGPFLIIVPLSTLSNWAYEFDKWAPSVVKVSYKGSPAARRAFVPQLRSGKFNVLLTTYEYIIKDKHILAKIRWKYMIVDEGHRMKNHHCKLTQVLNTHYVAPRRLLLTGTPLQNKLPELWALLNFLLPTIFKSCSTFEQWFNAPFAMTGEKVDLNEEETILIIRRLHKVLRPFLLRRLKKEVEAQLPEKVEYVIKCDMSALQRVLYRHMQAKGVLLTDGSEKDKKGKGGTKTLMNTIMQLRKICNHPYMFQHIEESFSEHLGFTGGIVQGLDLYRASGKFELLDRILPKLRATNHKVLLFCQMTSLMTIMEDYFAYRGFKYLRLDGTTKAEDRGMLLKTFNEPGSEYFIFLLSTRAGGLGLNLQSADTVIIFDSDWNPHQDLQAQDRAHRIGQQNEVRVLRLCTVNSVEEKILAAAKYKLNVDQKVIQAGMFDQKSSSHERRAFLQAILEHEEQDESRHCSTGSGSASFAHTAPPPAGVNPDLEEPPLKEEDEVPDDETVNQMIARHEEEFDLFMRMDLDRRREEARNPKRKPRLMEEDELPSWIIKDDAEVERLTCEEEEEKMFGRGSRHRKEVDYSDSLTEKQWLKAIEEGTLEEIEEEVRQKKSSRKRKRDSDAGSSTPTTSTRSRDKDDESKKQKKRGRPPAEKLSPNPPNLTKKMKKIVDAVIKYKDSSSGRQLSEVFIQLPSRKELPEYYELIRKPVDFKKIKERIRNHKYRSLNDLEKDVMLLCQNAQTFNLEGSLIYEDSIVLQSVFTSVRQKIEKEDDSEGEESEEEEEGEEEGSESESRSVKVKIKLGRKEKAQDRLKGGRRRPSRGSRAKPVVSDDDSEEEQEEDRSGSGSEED
Test: HiBit assay in engineered HT1080 CRISPR knock-in cell, 6 hrs (B series), SMARCA4
Format: cell-based
Settings: HT-1080, HT1080 CRISPR knock-in cells, 6 hrs incubation; read-out: SMARC A4 HT1080 HiBit Dmax(%)

| compound | targetOfAssay | Dmax |
| --- | --- | --- |
| Cc1cc([C@H](C(=O)N2C[C@H](O)C[C@H]2C(=O)N[C@@H](C)c2ccc(-c3scnc3C(=O)NCCCCOCCN3CCC(c4ccc5c(c4)-n4c(nc(=O)c6c(Cl)cccc64)C5(C)C)CC3)cc2)C(C)C)on1 [Compound B147] | SMARCA4 (Homo sapiens, UniProt P51532) | 50 to 69% |
| Cc1ncsc1-c1ccc([C@H](C)NC(=O)[C@@H]2C[C@@H](O)CN2C(=O)[C@H](C(C)C)n2cc(CCN3CCC(c4ccc5c(c4)C(C)(C)c4nc(=O)c6c(Cl)cccc6n4-5)CC3)nn2)cc1 [Compound B17] | SMARCA4 (Homo sapiens, UniProt P51532) | > 90% |
| Cc1cc(C(C(=O)N2C[C@H](O)C[C@H]2C(=O)N[C@@H](CN2CCC(CN3CCC(c4cccc5c4C(C)(C)c4nc(=O)c6c(Cl)cccc6n4-5)CC3)CC2)c2ccc(-c3scnc3C)cc2)C(C)C)on1 (stereo partly drawn) [Compound B139] | SMARCA4 (Homo sapiens, UniProt P51532) | 70 to 90% |
| Cc1ncsc1-c1ccc([C@H](C)NC(=O)[C@@H]2C[C@@H](O)CN2C(=O)[C@@H](n2cc(C3CC4(C3)CC(N3CCC(c5ccc6c(c5)-n5c(nc(=O)c7c(Cl)cccc75)C6(C)C)CC3)C4)nn2)C(C)(C)C)cc1 (stereo partly drawn) [Compound B86] | SMARCA4 (Homo sapiens, UniProt P51532) | 70 to 90% |
| Cc1ncsc1-c1ccc([C@H](C)NC(=O)[C@@H]2C[C@@H](O)CN2C(=O)[C@H](C(C)C)n2cc(C3CCC(N4CCC(c5cccc6c5C(C)(C)c5nc(=O)c7c(Cl)cccc7n5-6)CC4)CC3)nn2)cc1 (stereo partly drawn) [Compound B114] | SMARCA4 (Homo sapiens, UniProt P51532) | < 50% |
| Cc1ncsc1-c1ccc(CNC(=O)[C@@H]2C[C@@H](O)CN2C(=O)[C@@H](NC(=O)C2(F)CC2)C(C)(C)C)c(OCCCCN2CCC(c3ccc4c(c3)-n3c(nc(=O)c5c(Cl)cccc53)C4(C)C)CC2)c1 [Compound B35] | SMARCA4 (Homo sapiens, UniProt P51532) | > 90% |
| Cc1ncsc1-c1ccc([C@H](CN2CCOCC2)NC(=O)[C@@H]2C[C@@H](O)CN2C(=O)[C@H](C(C)C)n2cc([C@H]3CC[C@H](CN4CCN(c5ccc6c(c5)-n5c(nc(=O)c7c(Cl)cccc75)C6(C)C)CC4)CC3)nn2)cc1 [Compound B129] | SMARCA4 (Homo sapiens, UniProt P51532) | 70 to 90% |
| Cc1ncsc1-c1ccc2c(c1)CCC[C@H]2NC(=O)[C@@H]1C[C@@H](O)CN1C(=O)[C@@H](n1cc([C@H]2CC[C@H](CN3CCC(c4ccc5c(c4)-n4c(nc(=O)c6c(Cl)cccc64)C5(C)C)CC3)CC2)nn1)C(C)(C)C [Compound B151] | SMARCA4 (Homo sapiens, UniProt P51532) | 50 to 69% |
| Cc1ncsc1-c1ccc([C@H](C)NC(=O)[C@@H]2C[C@@H](O)CN2C(=O)[C@H](C(C)C)n2cc(CN3CCC(c4ccc5c(c4)-n4c(nc(=O)c6c(Cl)cccc64)C5(C)C)CC3)nn2)cc1 [Compound B49] | SMARCA4 (Homo sapiens, UniProt P51532) | < 50% |
| Cc1ncsc1-c1ccc([C@H](C)NC(=O)[C@@H]2C[C@@H](O)CN2C(=O)[C@@H](NC(=O)CCCN2CCC(c3ccc4c(c3)-n3c(nc(=O)c5c(Cl)cccc53)C4(C)C)CC2)C(C)(C)C)cc1 [Compound B45] | SMARCA4 (Homo sapiens, UniProt P51532) | < 50% |
| Cc1ncsc1-c1ccc([C@H](CN2CCOCC2)NC(=O)[C@@H]2C[C@@H](O)CN2C(=O)[C@@H](n2cc([C@H]3CC[C@H](CN4CCC(c5ccc6c(c5)-n5c(nc(=O)c7c(Br)cccc75)C6(C)C)CC4)CC3)nn2)C(C)(C)C)cc1 [Compound B105] | SMARCA4 (Homo sapiens, UniProt P51532) | 70 to 90% |
| Cc1ncsc1-c1ccc([C@H](C)NC(=O)[C@@H]2C[C@@H](O)CN2C(=O)[C@@H](c2cc(OC3CCC(Cn4cc(-c5ccc6c(c5)-n5c(nc(=O)c7c(Cl)cccc75)C6(C)C)cn4)CC3)no2)C(C)C)cc1 (stereo partly drawn) [Compound B95] | SMARCA4 (Homo sapiens, UniProt P51532) | < 50% |
